// provenance: patent US7223764B2

Each record here notes measured AUC.
experimentNotes: Oral administration test in rats (plasma levels)
Assay type: in vivo, rat
appliedConditions: Male rat, 10 mg/kg p.o.
Structures can show the parent of a compound that is named as a salt.
// units = ng·h/mL; emit number, no label

Below are worked cases with known answers.
{"compound": "Cc1cc(OCC(F)(F)F)c(NC(=O)CN2CCN(CCSc3nc4cc(F)c(F)cc4[nH]3)CC2)c(OCC(F)(F)F)n1", "readoutUnits": "ng·h/mL", "AUC": 917}
{"compound": "CSc1cc(C)nc(SC)c1NC(=O)CN1CCN(CCSc2nc3ccccc3[nH]2)CC1 [Compound (B).HCl, reference compound]", "readoutUnits": "ng·h/mL", "AUC": 200}

Proceeding to the next compound to report its AUC.
Q: Fill blank: measured AUC of the compound Cc1cc(OCC(F)(F)F)c(NC(=O)CN2CCN(CCSc3nc4ccc(F)cc4[nH]3)CC2)c(OCC(F)(F)F)n1 is ____.
Ans: 367

----------
experimentNotes: Oral administration test in rats (plasma levels)
Format: in vivo, rat
appliedConditions: Female rat, 10 mg/kg p.o.
Counter-ions that a name gives are not always drawn.
measurementKind: AUC (ng·h/mL)
// units = ng·h/mL; emit number, no label

Below are worked cases with known answers.
{"compound": "Cc1cc(OCC(F)(F)F)c(NC(=O)CN2CCN(CCSc3nc4cc(F)c(F)cc4[nH]3)CC2)c(OCC(F)(F)F)n1", "resultValue": 6550}
{"compound": "CSc1cc(C)nc(SC)c1NC(=O)CN1CCN(CCSc2nc3ccccc3[nH]2)CC1 [Compound (B).HCl, reference compound]", "resultValue": 2470}

Proceeding to the next compound to report its AUC.
Q: Fill blank: measured AUC of the compound Cc1cc(OCC(F)(F)F)c(NC(=O)CN2CCN(CCSc3nc4ccc(F)cc4[nH]3)CC2)c(OCC(F)(F)F)n1 is ____.
Ans: 5100

----------
experimentNotes: Oral administration test in rats (plasma levels)
Type: in vivo, rat
appliedConditions: Male rat, 10 mg/kg p.o.
Structures can show the parent of a compound that is named as a salt.
measurementKind: Cmax
Just so you know, I need the unit written after the number.

Below are worked cases with known answers.
{"compound": "Cc1cc(OCC(F)(F)F)c(NC(=O)CN2CCN(CCSc3nc4ccc(F)cc4[nH]3)CC2)c(OCC(F)(F)F)n1", "resultValue": "418 ng/mL"}
{"compound": "CSc1cc(C)nc(SC)c1NC(=O)CN1CCN(CCSc2nc3ccccc3[nH]2)CC1 [Compound (B).HCl, reference compound]", "resultValue": "207 ng/mL"}

Q: Fill blank: measured Cmax of the compound Cc1cc(OCC(F)(F)F)c(NC(=O)CN2CCN(CCSc3nc4cc(F)c(F)cc4[nH]3)CC2)c(OCC(F)(F)F)n1 is ____.
Ans: 614 ng/mL

----------
Each record here notes measured Cmax.
experimentNotes: Oral administration test in rats (plasma levels)
Format: in vivo, rat
appliedConditions: Female rat, 10 mg/kg p.o.
Counter-ions that a name gives are not always drawn.
// units = ng/mL; emit number, no label

Below are worked cases with known answers.
{"molecule": "Cc1cc(OCC(F)(F)F)c(NC(=O)CN2CCN(CCSc3nc4ccc(F)cc4[nH]3)CC2)c(OCC(F)(F)F)n1", "Cmax, ng/mL": 3410}
{"molecule": "CSc1cc(C)nc(SC)c1NC(=O)CN1CCN(CCSc2nc3ccccc3[nH]2)CC1 [Compound (B).HCl, reference compound]", "Cmax, ng/mL": 1170}

Proceeding to the next molecule to report its Cmax.
Q: Fill blank: measured Cmax of the molecule Cc1cc(OCC(F)(F)F)c(NC(=O)CN2CCN(CCSc3nc4cc(F)c(F)cc4[nH]3)CC2)c(OCC(F)(F)F)n1 is ____.
Ans: 2840
